Source listed as the RNAGym collection of RNA variant scans (doi:10.7554/elife.90254).

B1: LINE1-full (parent)
chain: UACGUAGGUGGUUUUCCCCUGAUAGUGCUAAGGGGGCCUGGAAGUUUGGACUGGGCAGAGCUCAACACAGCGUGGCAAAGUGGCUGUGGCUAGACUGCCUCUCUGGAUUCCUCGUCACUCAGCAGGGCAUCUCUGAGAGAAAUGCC

- Variants of: B1
- assay-details: self-cleavage, relative activity (ratio to wild type); higher = more cleavage; in vitro, sequencing; the parent is a self-cleaving ribozyme
measured-endpoint: self-cleavage
Please respond with just the number, no unit label.

The value of self-cleavage measured for the variant U62A U130A turned out to be 0.03

The value of self-cleavage measured for the variant C111U C116A turned out to be 1.37

The value of self-cleavage measured for the variant A64C U73A turned out to be 0.32

The value of self-cleavage measured for the variant U9A U29C turned out to be 1.19
